# assayTarget: PRKCI (human)
# method: split-luciferase competition binding
# experimentalParameters: compound 10.0 µM
measuredProperty: inhibition (%)

[[record]]
compound = "N#C/C(=C(/N)Sc1ccc(N)cc1)c1ccccc1C(F)(F)F"
assaytarget = "PRKCI (human)"
recordedvalue = 0

[[record]]
compound = "Cn1cc(C2=C(c3cn(CCCSC(=N)N)c4ccccc34)C(=O)NC2=O)c2ccccc21"
assaytarget = "PRKCI (human)"
recordedvalue = 63

[[record]]
compound = "Cn1cnc2c(NCc3ccccc3)nc(NCCO)nc21"
assaytarget = "PRKCI (human)"
recordedvalue = 0

[[record]]
compound = "Cc1ccc(-c2nn(C(C)(C)C)c3ncnc(N)c23)cc1"
assaytarget = "PRKCI (human)"
recordedvalue = 0

[[record]]
compound = "N#C/C(=C\\c1ccc(O)c(O)c1)C(=O)NCc1ccccc1"
assaytarget = "PRKCI (human)"
recordedvalue = 0

[[record]]
compound = "CS(=O)c1ccc(-c2nc(-c3ccc(F)cc3)c(-c3ccncc3)[nH]2)cc1 (configuration not stated)"
assaytarget = "PRKCI (human)"
recordedvalue = 0

[[record]]
compound = "COc1ccc(Cl)cc1NC(=O)Nc1cc(C)nc2ccccc12"
assaytarget = "PRKCI (human)"
recordedvalue = 0

[[record]]
compound = "CN1CCC(Nc2ncc3ncnc(Nc4ccc(F)c(Cl)c4)c3n2)CC1"
assaytarget = "PRKCI (human)"
recordedvalue = 0


[P] O=C1c2ccccc2-c2n[nH]c3cccc1c23
[Q] Cc1[nH]c(/C=C2\C(=O)Nc3ccc(S(=O)(=O)Cc4c(Cl)cccc4Cl)cc32)c(C)c1C(=O)N1CCC[C@@H]1CN1CCCC1
[R] O=S(=O)(c1cccc2c(O)nccc12)N1CCCNCC1
[S] N#CC(=C(\N)Sc1ccccc1N)/C(C#N)=C(/N)Sc1ccccc1N
[T] Cn1cc(C2=C(c3ccc(Cl)cc3Cl)C(=O)NC2=O)c2ccccc21
// sort entries: inhibition, high to low // rank by listing labels in the order requested
R, T, Q, S, P

[P] O=c1cc(N2CCOCC2)oc2c1ccc1ccccc12
[Q] Fc1ccc(Cl)cc1-c1nc(Nc2ccncc2)c2nccnc2n1
// which entry has the larger inhibition value, P or Q ? State the label of the item chosen.
Q
(Q: 8%, P: 0%)

###

# assayTarget: PRKCE (human) (UniProt Q02156)
# Sequence (Q02156 whole entry, looked up): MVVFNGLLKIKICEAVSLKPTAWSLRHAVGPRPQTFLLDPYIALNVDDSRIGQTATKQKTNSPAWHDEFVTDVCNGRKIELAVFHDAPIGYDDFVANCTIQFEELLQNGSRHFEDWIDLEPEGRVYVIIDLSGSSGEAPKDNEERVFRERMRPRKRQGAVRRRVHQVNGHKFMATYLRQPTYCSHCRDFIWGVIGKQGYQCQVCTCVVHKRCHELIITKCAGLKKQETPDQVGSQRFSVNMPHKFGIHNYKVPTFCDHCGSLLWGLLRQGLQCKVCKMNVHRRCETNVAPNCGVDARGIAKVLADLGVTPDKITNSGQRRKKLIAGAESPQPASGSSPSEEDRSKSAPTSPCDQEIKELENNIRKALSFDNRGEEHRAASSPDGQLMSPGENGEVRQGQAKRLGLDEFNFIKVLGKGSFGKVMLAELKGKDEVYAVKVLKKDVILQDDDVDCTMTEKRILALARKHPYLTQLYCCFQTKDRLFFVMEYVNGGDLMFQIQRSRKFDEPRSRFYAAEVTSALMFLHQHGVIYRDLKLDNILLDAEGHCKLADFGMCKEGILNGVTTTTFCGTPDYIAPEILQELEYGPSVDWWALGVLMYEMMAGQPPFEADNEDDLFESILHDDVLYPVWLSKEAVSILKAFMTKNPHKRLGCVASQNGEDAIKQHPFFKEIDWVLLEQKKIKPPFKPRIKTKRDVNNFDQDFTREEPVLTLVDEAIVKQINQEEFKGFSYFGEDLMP
# method: split-luciferase competition binding
# experimentalParameters: compound 10.0 µM
measuredProperty: inhibition (%)

Example entries and their recorded answers appear below.
[[record]]
smi = "CS(=O)(=O)CCNCc1nc(-c2ccc3ncnc(Nc4ccc(OCc5cccc(F)c5)c(Cl)c4)c3c2)cs1"
recordedvalue = 14

[[record]]
smi = "COc1nccc(-c2c(-c3ccc(F)cc3)ncn2[C@H]2CC[C@H](O)CC2)n1"
recordedvalue = 0

[[record]]
smi = "O=c1cc(N2CCOCC2)oc2c1ccc1ccccc12"
recordedvalue = 6

[[record]]
smi = "COc1cc2ncn(-c3cc(OCc4ccccc4C(F)(F)F)c(C(N)=O)s3)c2cc1OC"
recordedvalue = 12

[[record]]
smi = "Nc1ncnc2[nH]nc(Nc3ccc(F)cc3)c12"
recordedvalue = 6


[I] COc1cc2c(Nc3ccc(NC(=O)c4ccccc4)cc3)ncnc2cc1OCCCN1CCOCC1
[II] CC(C)[C@H](CO)Nc1nc(Nc2cccc(Cl)c2)c2ncn(C(C)C)c2n1
Endpoint returns whichever of I and II has the numerically higher inhibition. Which one? Tell me its label.
II
(II: 2%, I: 0%)

This collection of values is drawn from the kinase profiling compilation of Christmann-Franck et al. (2016).
